System: RPMI-8226 leukemia
Test: NCI tumour cell line growth inhibition, 48 h
Where a SMILES comes first, the peptide text is derived from it. [ ]: non-standard residue; d: D form. The star is where a group is joined. Octanoyl = CCCCCCCC(=O)*; Aib = CC(C)(N)C(=O)O; tBu = CC(C)(C)*
Could you please report measured TGI for the items listed next?

Exercise: Please give the documented TGI of O=C(Nc1c(O)[nH]c(=S)[nH]c1=O)c1ccc2ccccc2n1
Solution: > 100 µM

Exercise: Report TGI, nothing else, for this compound: CC(=O)N[C@H]1CCCC[C@@H]1OC(C)=O
Solution: > 100 µM

Exercise: Quote TGI reported for COc1ccc(/C=C2\CCC(C)(CN(C)C)C2=O)cc1 (stereo not given) please.
Solution: > 100 µM

Exercise: Give recorded TGI. CCCCCCCC(=O)NC(C)(C)C(=O)NC(COC(C)(C)C)C(=O)NC(CC(C)C)C(=O)NC(C)(C)C(=O)NC(COC(C)(C)C)C(=O)NC(COC(C)(C)C)C(=O)NC(CC(C)C)C(=O)NC(C)(C)C(=O)NC(COC(C)(C)C)C(=O)NC(C(=O)NC(CC(C)C)C(=O)OC)C(C)CC (stereo not given) (Octanoyl-[Aib]S(tBu)L[Aib]S(tBu)S(tBu)L[Aib]S(tBu)IL-OMe; configuration not given here)
Solution: 11.2 µM

Exercise: Look up TGI of Nc1ccn(C2CC(CO)C(O)C2O)c(=O)n1 (stereo not given) and report it.
Solution: > 57.7 µM

----------
Provide the reported TGI of each item.
Test system: MDA-MB-435
Assay: NCI tumour cell line growth inhibition, 48 h
Where a SMILES comes first, the peptide text is derived from it. [ ]: non-standard residue; d: D form. β3hI = CC[CH](C)[CH](N)CC(=O)O

Exercise: Tell me TGI of CCOC(=O)CCC(NC(=O)c1ccc(OCc2nc3ccccc3n3cccc23)cc1)C(=O)OCC (stereo not drawn) when tested on MDA-MB-435.
Solution: > 100 µM

Exercise: Param request: TGI | system MDA-MB-435 | item CCC(C)C(CC(=O)N1CCCC1C(=O)NC(C(=O)NC(C(=O)NCC(=O)NC(CC(N)=O)C(=O)NC(C(=O)NC(C(=O)NC(CCCCN)C(N)=O)C(C)CC)C(C)CC)C(C)C)C(C)CC)NC(=O)C(N)C(C)CC (stereo not drawn) (H-I[β3hI]PIVGNIIK-NH2; configuration not given here)
Solution: > 50 µM

Exercise: For MDA-MB-435, give the measured TGI of the entry O=C(NC1=NC2C=CC([N+](=O)[O-])=CC2S1)C(=O)Nn1c(=S)[nH]c2ccccc2c1=O (stereo not drawn)
Solution: > 100 µM

----------
Tested on: M14 melanoma
Assay: NCI tumour cell line growth inhibition, 48 h
Quantity: log10(TGI) (log10 of the value in µM)
Answers are given as log10 of TGI in µM.

Exercise: GET log10(TGI) | system: M14 melanoma | item: N=c1ccc2c(c1)[nH]c1c3ccccc3[nH]c3cccc2c31
Solution: 0.56

Exercise: Would you please give the reported log10(TGI) of COc1ccc(/C(C)=N/OC(=O)c2c(-c3ccccc3Cl)noc2C)cc1CN1CCOCC1 with M14 melanoma?
Solution: 1.45

Exercise: Under M14 melanoma, report log10(TGI) for Nc1ncnc2c1ncn2CC(CO)CC(c1ccccc1)P(=O)(O)O (stereo not drawn)
Solution: 0.21

Exercise: Send back M14 melanoma log10(TGI) of COC(=O)CCC/C=C\C[C@H]1C=CC(=O)/C1=C/C[C@@H](O)C/C=C\CC(F)(F)F only.
Solution: 0.64

Exercise: Recall the reported log10(TGI) of CC1=C(C(=O)NCc2ccccc2)C(c2ccccc2[N+](=O)[O-])C(C(=O)NCc2ccccc2)=C(C)N1 when tested on M14 melanoma.
Solution: 1.38

Exercise: Write log10(TGI) of Cn1cc(C2=C(c3cn(CCN)c4ccccc34)C(=O)NC2=O)c2ccccc21 ; system used: M14 melanoma
Solution: 1.29

Exercise: Please report the measured log10(TGI) for CCOC(=O)c1sc(=S)c2c(C(=O)OCC)c(C(=O)OCC)sc2c1C(=O)OCC tested on M14 melanoma.
Solution: 1.51

Exercise: Check M14 melanoma data and give log10(TGI) for COc1ccc(/C=C/c2n[nH]c3ccc(N4CCOC4=O)cc23)cc1 .
Solution: 1.02

Exercise: Find log10(TGI) for CN(C)CCNC(=O)c1cccc2[nH]c(-c3ccccc3)nc12 on M14 melanoma and write it down.
Solution: 1.49

Exercise: Give log10(TGI); test system M14 melanoma; compound COc1cc2nc(Nc3cccc(F)c3)nc(Nc3cc(C)[nH]n3)c2cc1OC
Solution: 0.51

----------
System: KM12 colon
Experiment: NCI tumour cell line growth inhibition, 48 h
Where a SMILES comes first, the peptide text is derived from it. [ ]: non-standard residue; d: D form. β3hI = CC[CH](C)[CH](N)CC(=O)O
So I've got a bunch of compounds here, and I need their TGI values.

Exercise: Give TGI for the following compound: COC(=O)C1(Cc2ccccc2)Cc2ccc3c(c2C1=O)CCC3 (stereo not given)
Solution: > 100 µM

Exercise: Return value of TGI for input CCCCCCCCCCCCCCCCOCC(COP(=O)([O-])OCC[N+](C)(C)C)OCCCCCCCCCCCCCCCC (stereo not given) , no commentary.
Solution: > 100 µM

Exercise: Input Cc1ccc(S(=O)(=O)OC2C(C3COC(C)(C)O3)OC3OC(C)(C)OC32)cc1 (stereo not given) , output reported TGI.
Solution: > 100 µM

Exercise: # return recorded TGI for input O=C(Nc1nc2ncn(CC(COc3ccccc3)OC(=O)c3ccccc3)c2c(=O)[nH]1)c1ccccc1 (stereo not given)
Solution: > 100 µM

Exercise: Tell us which TGI value is on record for CN(C)CCNC(=O)c1cccc2[nH]c(-c3ccccc3)nc12
Solution: 66.4 µM

Exercise: Using the record for O=C1CCC2(CC1)SCCCS2 , state its measured TGI.
Solution: > 100 µM

Exercise: Indicate its recorded TGI; the compound in question is Nc1ccc(/C=N/Nc2ccnc3c(N)cccc23)c2cccnc12
Solution: 3.49 µM

Exercise: Return value of TGI for input N#CC1=C(N)OC(c2ccc([N+](=O)[O-])cc2)C1(C#N)C#N (stereo not given) , no commentary.
Solution: > 48.4 µM

Exercise: Hello, please tell me recorded TGI for this one: CC(C)n1c2c([n+](C)c1/C=C/c1ccccc1)C(=O)c1ccccc1C2=O
Solution: 0.975 µM

Exercise: Item CN(C)CC1(C)CC/C(=C\c2ccccc2)C1=O (stereo not given) : provide TGI
Solution: > 100 µM

Exercise: Indicate the recorded TGI value for this compound: NC1=N/C(=C2/CCNC(=O)c3[nH]c(Br)cc32)C(=O)N1
Solution: > 100 µM

Exercise: Report measured TGI; entry is CCN(CC)CCCNc1nc2ccccc2c2[nH]c3ccc(OC)cc3c12
Solution: 2.03 µM

Exercise: Determine its reported TGI: CC#C[I+]c1ccccc1
Solution: 40.1 µM

Exercise: Give reported TGI value for CCOP(=O)(OCC)/C(C#N)=C/c1cccn1CC(C)C
Solution: > 100 µM

Exercise: In one line, give reported TGI of the entry O=C(NO)C12C3C4C1C1C2C3C41C(=O)NO (stereo not given) .
Solution: > 100 µM

Exercise: Complete the entry with TGI for COc1ccc2oc(C(=O)N3CC(CCl)c4ccc([N+](=O)[O-])cc43)cc2c1 (stereo not given)
Solution: > 100 µM

Exercise: Supply reported TGI belonging to this compound: C1=Cc2nc1c(-c1ccncc1)c1ccc([n-]1)c(-c1ccncc1)c1nc(c(-c3ccncc3)c3ccc([n-]3)c2-c2ccncc2)C=C1.[Zn+2]
Solution: > 100 µM

Exercise: Provide TGI value for the following compound: NCCNC(=S)S
Solution: > 100 µM

Exercise: Give the reported TGI for this compound. COc1ccc(-c2nc(-c3nc4ccc(OC)cc4[nH]3)cc3c2[nH]c2ccccc23)cc1
Solution: > 100 µM

Exercise: Report TGI for CCOC(=O)CCC(NC(=O)Cc1ccc(Oc2nc3ccccc3nc2-c2cccs2)cc1)C(=O)OCC (stereo not given)
Solution: > 100 µM

Exercise: Write down TGI measured for item CCOC(=O)c1cn(Cc2ccccc2)c(=O)n1Cc1ccccc1
Solution: > 100 µM

Exercise: Entry Cn1c(-c2ccc(/C=N\N3CCN(/N=C/c4ccc(-c5c[n+]6ccsc6n5C)cc4)CC3)cc2)c[n+]2ccsc12 needs its TGI filled in; supply it.
Solution: > 100 µM

Exercise: Let me know recorded TGI for CCC(C)C(CC(=O)N1CCCC1C(=O)NC(C(=O)NC(C(=O)NCC(=O)NC(CC(N)=O)C(=O)NC(C(=O)NC(C(=O)NC(CCCCN)C(N)=O)C(C)CC)C(C)CC)C(C)C)C(C)CC)NC(=O)C(N)C(C)CC (stereo not drawn) (H-I[β3hI]PIVGNIIK-NH2; configuration not given here) , thanks.
Solution: > 50 µM

Exercise: Given the compound Cc1cc(C)c2c(=O)n(CN3CCC(O)(c4ccccc4)CC3)sc2n1 , write its reported TGI.
Solution: > 100 µM

Exercise: Indicate the recorded TGI value for this compound: COc1ccc(O)c(C=NCCCN=Cc2cc(OC)ccc2O)c1
Solution: 64.6 µM

Hey, just so you know, these numbers are from PubChem BioAssay (NCI).
